target.or.test.system: Estrogen-related receptor gamma (Mus musculus, UniProt P62509)
Sequence (P62509 whole entry, the tested form may be a part): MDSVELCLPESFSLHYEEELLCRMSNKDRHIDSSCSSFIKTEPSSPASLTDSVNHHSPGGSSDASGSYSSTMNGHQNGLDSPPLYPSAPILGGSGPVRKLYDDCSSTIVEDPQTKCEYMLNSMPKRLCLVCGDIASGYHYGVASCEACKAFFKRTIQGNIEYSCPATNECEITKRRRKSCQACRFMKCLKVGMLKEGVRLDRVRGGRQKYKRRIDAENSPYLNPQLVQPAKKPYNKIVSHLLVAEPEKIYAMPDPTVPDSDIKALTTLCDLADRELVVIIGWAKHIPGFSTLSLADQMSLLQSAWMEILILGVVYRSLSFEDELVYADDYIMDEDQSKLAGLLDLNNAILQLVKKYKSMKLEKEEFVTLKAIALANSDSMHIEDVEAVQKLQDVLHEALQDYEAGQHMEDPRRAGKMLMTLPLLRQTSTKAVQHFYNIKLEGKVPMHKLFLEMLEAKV
assay.explanation: Inverse agonist activity at Gal4-tagged mouse ERR-gamma LBD transfected in HEK293T cells co-expressing FR-luc assessed as inhibition of transcriptional activity incubated for 24 hrs by luciferase reporter gene assay
Measured pIC50 values are reported for all entries that follow.
Please express pIC50 as -log10 of the molar concentration.

| smiles.input | target.or.test.system | endpoint.value |
| --- | --- | --- |
| COc1cccc(-c2nn(-c3ccccc3)cc2C(=O)Nc2cc(N)cc(Oc3cccnc3)c2)c1 | Estrogen-related receptor gamma (Mus musculus, UniProt P62509) | 5.54 |
| COc1cc(C)ccc1Oc1ccc(NC(=O)c2cn(-c3ccccc3)nc2-c2ccccc2)cc1 | Estrogen-related receptor gamma (Mus musculus, UniProt P62509) | 5.02 |
| COc1cc(C)ccc1Oc1ccc(NC(=O)c2cn(-c3ccccc3)nc2-c2ccc(C)cc2)cc1 | Estrogen-related receptor gamma (Mus musculus, UniProt P62509) | 5.26 |
| COc1cccc(Oc2cc(N)cc(NC(=O)c3cn(-c4ccccc4)nc3-c3cccc(OC)c3)c2)c1 | Estrogen-related receptor gamma (Mus musculus, UniProt P62509) | 5.07 |
| O=C(Nc1cc(Oc2cccnc2)cc(C(F)(F)F)c1)c1cn(-c2ccccc2)nc1-c1ccccc1 | Estrogen-related receptor gamma (Mus musculus, UniProt P62509) | 5.17 |

The reported value for `COc1cccc(Oc2cc(N)cc(NC(=O)c3cn(-c4ccccc4)nc3-c3ccccc3)c2)c1` in terms of pIC50 is 4.87

The reported value for `O=C(Nc1cccc(Oc2cccnc2)c1)c1cn(-c2ccccc2)nc1-c1ccccc1` in terms of pIC50 is 5.88

The reported value for `COc1ccc(-c2nn(-c3ccccc3)cc2C(=O)Nc2ccc(Oc3ccc(C)cc3OC)cc2)cc1OC` in terms of pIC50 is 4.98

====

target.or.test.system: Estrogen-related receptor gamma (Mus musculus) (UniProt P62509)
assay.explanation: Inverse agonist activity at Gal4-tagged mouse ERR-gamma LBD transfected in HEK293T cells co-expressing FR-luc assessed as inhibition of transcriptional activity at 10 uM incubated for 24 hrs by luciferase reporter gene assay
Assay type: cell-based
Calls of active or inactive are those of the source. The rule behind the calls is not given here.
quantity: inhibition

| smiles.input | endpoint.value |
| --- | --- |
| COC(=O)c1ccc(-n2cc(C(=O)Nc3cc(N)cc(Oc4cccnc4)c3)c(-c3ccccc3)n2)cc1 | inactive |
| COc1cccc(-c2nn(-c3ccccc3)cc2C(=O)Nc2cc(N)cc(OCCN(C)C)c2)c1 | inactive |
| COc1cccc(-c2nn(-c3ccccc3)cc2C(=O)Nc2cc(N)cc(OCCCN(C)C)c2)c1 | inactive |

====

target.or.test.system: Estrogen-related receptor gamma (Mus musculus, UniProt P62509)
assay.explanation: Inverse agonist activity at Gal4-tagged mouse ERR-gamma LBD transfected in HEK293T cells co-expressing FR-luc assessed as inhibition of transcriptional activity incubated for 24 hrs by luciferase reporter gene assay
quantity: IC50 (µM)
Answer in µM, number only, no unit symbol.

Use the examples below as a reference point.
| smiles.input | endpoint.value |
| --- | --- |
| COc1ccc(-c2nn(-c3ccccc3)cc2C(=O)Nc2ccc(Oc3ccc(C(C)C)cc3)cc2)cc1OC | 9.95 |
| COC(=O)c1cccc(Oc2cc(N)cc(NC(=O)c3cn(-c4ccccc4)nc3-c3ccccc3)c2)c1 | 8.42 |

Let us examine a further case.
The reported value for `COc1cccc(-c2nn(-c3ccccc3)cc2C(=O)Nc2cccc(Oc3cccnc3)c2)c1` in terms of IC50 is 2.11
